Give composite z-score for every item shown.
Test: probe aNOTCH2 binding on compound microarray – biochemical, small-molecule microarray, 635/667 nm fluorescence, primary screen (AID 1121);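 note: score merges feature fluorescence read at 667 nm with its signal to noise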
Details: higher = more signal
Returns: the value as a bare number; no unit string appended.

Reported composite z-score ( CC(=O)NCCCC[C@@H]1NC(=O)[C@H]2C[C@@H](C(=O)NCCCCCCNC(=O)CS)[C@@H](c3cccc(OCCO)c3)N2C1=O ) = -0.108

Reported composite z-score ( CCOC(=O)C1=CC[C@@H](c2ccccc2)N(S(=O)(=O)c2ccc(C)cc2)[C@H]1c1ccccc1I ) = -0.0226

Reported composite z-score ( CC1CC/C=C\[C@H]2OC34C=CCN(Cc5ccccc5)C(=O)[C@H]3N(CCCCCCO)C(=O)[C@@H]4C2C(=O)O1 (stereo partly specified) ) = -0.133

Reported composite z-score ( COc1cc(CO)cc(I)c1O[C@H]1C=C(C(=O)NCCO)C[C@@H](NC2CCCCCC2)[C@@H]1O ) = -0.161

Reported composite z-score ( CCCC=C(CCC)[C@@H](NC(=O)OCC(C)C)c1ccc(C(=O)OC)cc1 ) = -0.15

Reported composite z-score ( O=C1N(CCS(=O)(=O)c2ccccc2)c2ccccc2C[C@]12N=C(c1ccc(OCCCO)cc1)O[C@@H]2c1ccccc1 ) = -0.0694

Reported composite z-score ( COc1ccc([Si](C)(C)[C@H]2[C@H](CC(=O)N3Cc4ccccc4C[C@H]3CO)O[C@@]3(C(=O)N(C)c4ccccc43)[C@@H]2C)cc1 ) = -0.11

Reported composite z-score ( COc1cc(C(O)C2C=CC3C(=O)N(c4ccccc4)C(=O)C3N2Nc2ccccc2)cc(OC)c1OC (stereo unspecified) ) = -0.0742

Reported composite z-score ( C=C(CCCC)/C(=C/C[C@H](OC(=O)c1ccncc1)c1ccccc1OCCO)c1cc(C(=O)OC)ccc1OC ) = -0.145

Reported composite z-score ( Cc1ccc(S[C@]2(C(=O)NCCCN(C)C)CC(=O)N(Cc3ccccc3C(F)(F)F)[C@@H]2c2ccc(CO)cc2I)cc1 ) = 0.337

Reported composite z-score ( CCCCCC1=C2CNC(Cc3ccccc3)(C(=O)OC)C=C2C(C)C1=O (stereo unspecified) ) = 0.0878

Reported composite z-score ( COC(=O)[C@@]1(Cc2ccccc2)[C@H]2c3cc(C(=O)N(C)C)n(CCO)c3C[C@H]2CN1C(=O)c1ccccc1 ) = 0.19

Reported composite z-score ( CN(C)CCCNC(=O)[C@@H]1c2ccccc2C(=O)N(Cc2ccccc2C(F)(F)F)[C@H]1c1ccc(CO)cc1 ) = -0.0996

Reported composite z-score ( C=CC[C@@]1(C(=O)OC)N=C(c2ccc(OCCCO)cc2)O[C@@H]1c1ccccc1N=[N+]=[N-] ) = 0.12

Reported composite z-score ( Cc1ccccc1C(O)C1C=CC2C(=O)N(c3ccccc3)C(=O)C2N1Nc1ccccc1 (stereo unspecified) ) = -0.0485

Reported composite z-score ( C#CCN1[C@@H](Cc2ccccc2)C(=O)O[C@H](Cc2ccccc2)[C@@H]1/C=C/C1CC1 ) = -0.126
